# pKd listing for each entry below
Target: T1, DFNB31_1, Q9P202
T1 sequence (Q9P202 135-233, limits assumed, looked up): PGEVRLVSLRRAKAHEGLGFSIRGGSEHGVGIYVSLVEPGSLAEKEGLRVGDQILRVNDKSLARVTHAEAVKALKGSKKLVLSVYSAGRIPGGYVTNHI
Assay: holdup assay
Parameters: key: below the threshold = too weak to quantify, mostly under pKd 3.1 to 4
Conditions: plain residues with an end cap or a label only (N-terminal biotin on a linker: ado-ado)
measure_name: pKd

[
  {
    "binder": "PDGQCTVTEV [RNF146, Q9NTX7]",
    "readout_value": 3.9
  },
  {
    "binder": "TSQESEDTYL [TBC1D10A, Q9BXI6]",
    "readout_value": 3.62
  },
  {
    "binder": "SGSLKLMTTV [DACT1, Q9NYF0]",
    "readout_value": 3.56
  }
]
